System: DU-145
Test: Growth inhibitory concentration required against human prostate DU-145 cancer cell line
Type: functional
endpoint: GI50 (µM)
The reply should contain only the number, in µM.

The cases that follow already have their GI50 on record.
compound	study-system	GI50 [µM]
C=CCc1cc2c(cc1O)CC[C@@H]1[C@@H]2CC[C@]2(C)[C@@H](O)CC[C@@H]12	DU-145	24
COc1cc2c(cc1O)CCC1[C@@H]2CC[C@@]2(C)[C@H]1CCC2(F)F (single isomer, unassigned)	DU-145	56.2
C[C@]12CC[C@@H]3c4cc(CO)c(O)cc4CC[C@H]3[C@@H]1CC[C@@H]2O	DU-145	70.8
CN(C)CCC/N=C/c1cc2c(cc1O)CC[C@@H]1[C@@H]2CC[C@]2(C)[C@@H](O)CC[C@@H]12	DU-145	20.9
CC(=O)c1cc2c(cc1O)CC[C@@H]1[C@@H]2CC[C@]2(C)[C@@H](O)CC[C@@H]12	DU-145	55

Data request: Quick one: GI50 for "CCC(=O)c1cc2c(cc1O)CC[C@@H]1[C@@H]2CC[C@]2(C)[C@@H](O)CC[C@@H]12" ?
Data returned: 15.5

Data request: Quick one: GI50 for "C[C@]12CC[C@@H]3c4cc(C(F)(F)C(F)(F)F)c(O)cc4CC[C@H]3[C@@H]1CC[C@@H]2O" ?
Data returned: 14.5

Data request: Quick one: GI50 for "CC#Cc1cc2c(cc1O)CC[C@@H]1[C@@H]2CC[C@@]2(C)[C@H]1CC[C@]2(C)O" ?
Data returned: 4.1

Data request: Quick one: GI50 for "COc1cc2c(cc1O)CC[C@@H]1[C@@H]2CC[C@@]2(C)[C@H]1CC[C@@]2(O)C(F)(F)F" ?
Data returned: 18.2

Data request: Quick one: GI50 for "C/C(COc1cc2c(cc1O)CC[C@@H]1[C@@H]2CC[C@]2(C)[C@@H](O)CC[C@@H]12)=N/O" ?
Data returned: 29.5

###

Tested on: UACC-62
Assay: Growth inhibitory concentration required against human melanoma UACC-62 cancer cell line
Type: functional
endpoint: GI50

structure-smiles-string	study-system	endpoint	assay-value
C[C@]1(O)CC[C@H]2[C@@H]3CCc4cc(O)ccc4[C@H]3CC[C@@]21C	UACC-62	GI50	1.48 µM
C[C@]12CC[C@@H]3c4cc(C(F)(F)C(F)(F)F)c(O)cc4CC[C@H]3[C@@H]1CC[C@@H]2O	UACC-62	GI50	13.8 µM
C=CCc1cc2c(cc1O)CC[C@@H]1[C@@H]2CC[C@]2(C)[C@@H](O)CC[C@@H]12	UACC-62	GI50	13.2 µM

Data request: Lab note: need GI50 with UACC-62 for entry "CCOc1cc2c(cc1O)CC[C@@H]1[C@@H]2CC[C@@]2(C)[C@H]1CC[C@]2(C)O" , please look it up.
Data returned: 3.74 µM
